Tested on: Male Sprague Dawley rats on high fat diet
Assay: 11 day rat DIO model (body weight, food intake, hematology, blood chemistries)
Assay type: in vivo
Settings: 264 h; DIO rat, 1.0 mpk sc, once a day for 11 days; read-out: DIO Rat 11-day weight loss vs vehicle
Where a name gives a salt, the structure may show the parent alone.
What inhibition in vivo at 1 mg/kg was measured for each of the following?
Answers are plain numbers, in %.

Solved cases (2 shown):
CCN(CC)C[C@@H]1CCCN1C(=O)O[C@@H]1CC[C@]2(CO2)[C@@H]([C@@]2(C)O[C@@H]2CC=C(C)C)[C@@H]1OC [Example 48, formate]
7.88
CCN(CC)C[C@H]1CCN1C(=O)O[C@@H]1CC[C@]2(CO2)[C@@H]([C@@]2(C)O[C@@H]2CC=C(C)C)[C@@H]1OC [Example 43, formate]
2.9

// inhibition in vivo at 1 mg/kg value for CCN(CC)C[C@@H]1CCN1C(=O)O[C@@H]1CC[C@]2(CO2)[C@@H]([C@@]2(C)O[C@@H]2CC=C(C)C)[C@@H]1OC [Example 40, formate] : 4.73

----------
Tested on: Male Sprague Dawley rats on high fat diet
Test: 11 day rat DIO model (body weight, food intake, hematology, blood chemistries)
Type: in vivo
Settings: 264 h; DIO rat, 0.3 mpk sc, once a day for 11 days; read-out: DIO Rat 11-day weight loss vs vehicle
Counter-ions that a name gives are not always drawn.
Provide the recorded inhibition in vivo at 0.3 mg/kg for the entries that follow.
Reply with the number, then its unit.

Solved cases below.
CCN(CC)C[C@H]1CCN1C(=O)O[C@@H]1CC[C@]2(CO2)[C@@H]([C@@]2(C)O[C@@H]2CC=C(C)C)[C@@H]1OC [Example 43, formate]
0.35%
CO[C@@H]1[C@H](OC(=O)N2CC(CN3CCOCC3)C2)CC[C@]2(CO2)[C@H]1[C@@]1(C)O[C@@H]1CC=C(C)C
3%
CO[C@@H]1[C@H](OC(=O)N2CC(OC(=O)N3CCN(C)CC3)C2)CC[C@]2(CO2)[C@H]1[C@@]1(C)O[C@@H]1CC=C(C)C
1.2%
CO[C@@H]1[C@H](OC(=O)N2CC(CCN3CC(F)(F)C3)C2)CC[C@]2(CO2)[C@H]1[C@@]1(C)O[C@@H]1CC=C(C)C
5.7%

Let us move to another entry and its inhibition in vivo at 0.3 mg/kg.
The compound CCNC[C@H]1CCN1C(=O)O[C@@H]1CC[C@]2(CO2)[C@@H]([C@@]2(C)O[C@@H]2CC=C(C)C)[C@@H]1OC [Example 123, formate] , tested on Male Sprague Dawley rats on high fat diet, showed inhibition in vivo at 0.3 mg/kg of 1%

Values were extracted from patent US9682965B2.
